Target: rASCT2 (Rattus norvegicus, UniProt D3ZJ25)
Construct: expressed in transfected cells; host or cells: HEK293 (ATCC CRL-11268), transient transfection
Sequence (D3ZJ25 1-555): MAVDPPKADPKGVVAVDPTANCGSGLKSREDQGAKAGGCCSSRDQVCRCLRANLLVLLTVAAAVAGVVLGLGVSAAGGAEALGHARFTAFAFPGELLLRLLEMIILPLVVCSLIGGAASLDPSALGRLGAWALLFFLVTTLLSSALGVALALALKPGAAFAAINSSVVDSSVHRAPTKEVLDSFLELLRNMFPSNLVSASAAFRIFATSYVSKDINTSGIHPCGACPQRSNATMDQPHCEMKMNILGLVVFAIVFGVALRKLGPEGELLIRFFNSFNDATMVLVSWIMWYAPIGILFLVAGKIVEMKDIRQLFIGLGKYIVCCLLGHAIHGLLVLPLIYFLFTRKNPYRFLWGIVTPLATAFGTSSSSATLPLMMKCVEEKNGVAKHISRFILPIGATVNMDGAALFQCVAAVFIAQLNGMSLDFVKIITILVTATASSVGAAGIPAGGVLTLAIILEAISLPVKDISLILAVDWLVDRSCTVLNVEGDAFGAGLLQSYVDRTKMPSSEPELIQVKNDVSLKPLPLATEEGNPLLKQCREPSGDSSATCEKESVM
Test: Electrophysiology (whole-cell current recording) of transfected HEK293 cells, rASCT2
Type: cell-based
Conditions: apparent Ki in the absence of substrate, HEK293; nM; read-out: Ki rASCT2
endpoint: Ki

Lookup: // lookup Ki for O=C(Nc1cccc(C(=O)O[C@@H]2CN[C@H](C(=O)O)C2)c1)c1ccc(C(F)(F)F)cc1
Found: < 100 nM

* * *

Measured pKi, listed per entry.
Target: hASCT1 (Homo sapiens, UniProt P43007)
Construct: expressed in transfected cells; host or cells: HEK293 (ATCC CRL-11268), transient transfection
Sequence (P43007 whole entry): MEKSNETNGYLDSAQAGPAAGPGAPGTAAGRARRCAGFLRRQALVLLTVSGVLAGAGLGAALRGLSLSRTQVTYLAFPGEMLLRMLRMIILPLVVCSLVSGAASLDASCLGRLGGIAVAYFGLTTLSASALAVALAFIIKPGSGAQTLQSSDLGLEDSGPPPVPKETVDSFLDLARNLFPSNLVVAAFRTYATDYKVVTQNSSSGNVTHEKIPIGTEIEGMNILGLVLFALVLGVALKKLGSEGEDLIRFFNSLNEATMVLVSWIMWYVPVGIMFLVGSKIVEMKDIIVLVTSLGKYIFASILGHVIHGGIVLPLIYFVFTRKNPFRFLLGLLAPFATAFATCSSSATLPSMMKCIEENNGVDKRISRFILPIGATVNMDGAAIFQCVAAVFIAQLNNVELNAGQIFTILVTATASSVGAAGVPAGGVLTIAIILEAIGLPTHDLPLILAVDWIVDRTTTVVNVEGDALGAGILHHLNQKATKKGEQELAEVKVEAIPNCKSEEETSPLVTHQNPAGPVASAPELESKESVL
Experiment: Electrophysiology (whole-cell current recording) of transfected HEK293 cells, hASCT1
Format: cell-based
Conditions: apparent Ki in the absence of substrate, HEK293, mean ± SD; read-out: Ki hASCT1
Procedure: Human embryonic kidney 293 (HEK293, ATCC CRL-11268) cells were cultured in DMEM media supplemented with 10% (v v) fetal bovine serum (FBS), 2 mM glutamine, 1% penicillin streptomycin solution, 1 mM sodium pyruvate and non-essential amino acids. […] Cells were analyzed using electrophysiological techniques 24-40 hours after transfection. […] Linear and nonlinear curve fitting of the experimental data were analyzed using MicroCal Origin software. […]
API: returns pKi as number; meaning -log10 of concentration in mol/L.

Previously resolved entries follow.
[
  {
    "molecule": "O=C(O)[C@@H]1C[C@H](OCc2ccc(-c3ccccc3)cc2)CN1 [SN 39]",
    "test.target": "hASCT1 (Homo sapiens, UniProt P43007)",
    "pKi": 5.55
  },
  {
    "molecule": "N[C@@H](COC(=O)c1ccc(NC(=O)c2ccccc2)cc1)C(=O)O [SN 25]",
    "test.target": "hASCT1 (Homo sapiens, UniProt P43007)",
    "pKi": 4.93
  },
  {
    "molecule": "O=C(Nc1cccc(CN[C@@H]2CN[C@H](C(=O)O)C2)c1)c1ccccc1 [SN 42]",
    "test.target": "hASCT1 (Homo sapiens, UniProt P43007)",
    "pKi": 3.76
  },
  {
    "molecule": "O=C(Nc1ccc(C(=O)N[C@@H]2CN[C@H](C(=O)O)C2)cc1)c1ccccc1 [SN 48]",
    "test.target": "hASCT1 (Homo sapiens, UniProt P43007)",
    "pKi": 5.10
  },
  {
    "molecule": "O=C(O[C@@H]1CN[C@H](C(=O)O)C1)c1ccc(-c2ccccn2)cc1 [SN 18]",
    "test.target": "hASCT1 (Homo sapiens, UniProt P43007)",
    "pKi": 5.15
  }
]

Would you kindly look at the next entry?
Lookup: Form field - read-out: pKi; system: hASCT1 (Homo sapiens, UniProt P43007); submitted item: O=C(O[C@@H]1CN[C@H](C(=O)O)C1)c1ccc(C(=O)c2ccccc2)cc1 [SN 12]
Found: 5.16

* * *

target: rASCT2 (Rattus norvegicus); construct: expressed in transfected cells; host or cells: HEK293 (ATCC CRL-11268), transient transfection; assay: Electrophysiology (whole-cell current recording) of transfected HEK293 cells, rASCT2; assay type: cell-based; details: apparent Ki in the absence of substrate, HEK293, mean ± SD; read-out: Ki rASCT2
Measured pKi, listed per entry.
API: returns pKi as number; meaning -log10 of concentration in mol/L.

Previously resolved entries follow.
[
  {
    "molecule": "O=C(O[C@@H]1CN[C@H](C(=O)O)C1)c1cccc(-c2ccccc2)c1 [SN 06]",
    "pKi": 5.25
  },
  {
    "molecule": "N[C@@H](COCc1ccc(-c2ccccc2)cc1)C(=O)O [SN 38]",
    "pKi": 6.42
  },
  {
    "molecule": "O=C(O[C@@H]1CN[C@H](C(=O)O)C1)c1ccc(-c2ccc(F)cc2)cc1 [SN 08]",
    "pKi": 6.19
  },
  {
    "molecule": "O=C(O)[C@H]1NC[C@@H](NCc2ccc(-c3ccccc3)cc2)[C@@H]1O [SN 50]",
    "pKi": 5.87
  },
  {
    "molecule": "O=C(Nc1ccc(C(=O)O[C@@H]2CN[C@H](C(=O)O)C2)cc1)c1ccc(C(F)(F)F)cc1 [SN 15]",
    "pKi": 5.47
  }
]

Lookup: // lookup pKi for N[C@@H](CCOC(=O)c1ccc(-c2ccccc2)cc1)C(=O)O [SN 33]
Found: 5.45

Lookup: // lookup pKi for O=C(Nc1ccc(C(=O)N[C@@H]2CN[C@H](C(=O)O)C2)cc1)c1ccccc1 [SN 48]
Found: 4.91

Lookup: // lookup pKi for O=C(O[C@@H]1CN[C@H](C(=O)O)C1)c1c2ccccc2cc2ccccc12 [SN 22]
Found: 5.00

Lookup: // lookup pKi for O=C(O[C@@H]1CN[C@H](C(=O)O)C1)c1ccc(-c2ccccc2)nc1 [SN 19]
Found: 6.05

* * *

biological target: EAAC1 (UniProt P51907); construct: Ki EAAC1; other: apparent Ki, HEK293, internal solution 10 mM glutamate, mean ± SD; assay: Electrophysiology specificity experiment in transfected HEK293 cells, EAAC1; conditions: apparent Ki, HEK293, internal solution 10 mM glutamate, mean ± SD
Measured pKi, listed per entry.
API: returns pKi as number; meaning -log10 of concentration in mol/L.

Lookup: // lookup pKi for O=C(O[C@@H]1CN[C@H](C(=O)O)C1)c1ccc(-c2ccc(C(F)(F)F)cc2)cc1
Found: 5.90

Lookup: // lookup pKi for O=C(O[C@@H]1CN[C@H](C(=O)O)C1)c1ccc(-c2ccccc2)nc1
Found: 4.85

Lookup: // lookup pKi for O=C(O[C@@H]1CN[C@H](C(=O)O)C1)c1ccc(-c2ccc(F)cc2)cc1
Found: 6.16
